Biological target: T1, cynomolgus uPAR (recombinant) (cynomolgus monkey, UniProt Q9GK78 23-303, limits assumed)
T1 construct: also called cyno uPAR; AF647-cyno uPAR
T1 sequence (looked up): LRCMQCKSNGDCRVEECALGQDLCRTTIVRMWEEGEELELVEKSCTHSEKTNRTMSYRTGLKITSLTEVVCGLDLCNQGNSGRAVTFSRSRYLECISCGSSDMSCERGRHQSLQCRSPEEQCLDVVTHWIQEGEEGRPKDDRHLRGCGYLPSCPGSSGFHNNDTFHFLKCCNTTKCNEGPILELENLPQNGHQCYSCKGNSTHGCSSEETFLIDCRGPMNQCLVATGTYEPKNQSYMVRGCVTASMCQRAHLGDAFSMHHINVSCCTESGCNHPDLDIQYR
Assay: BLI (Octet HTX)
pKd: −log10 of the molar value.

{"binder": "11857 HC1 + LC1 (humanized) (antibody, V domains shown, detected with anti-human Fc antibody) VH: EVQLVQSGAEVKKPGATVKISCKVSGYTFTDYYMNWVQQAPGKSLEWMGNINPNNGGTDYNQKFQGRVTITADKSTSTAYMELSSLRSEDTAVYYCARSYGSRFPYWGLGTLVTVSS VL: DIQMTQSPSSLSASVGDRVTITCRASQDITNYLSWYQQKPGGTVKLLLYYTAVLQSGFPSRFSGSGSGADYTLTISSLQPEDFATYYCQQGHTLPWTFGGGTKVEIK", "pKd": 7.16}
{"binder": "3159 HC1 + LC2 (humanized) (antibody, V domains shown, detected with anti-human Fc antibody) VH: QVTLRESGPALVKPTQTLTLTCTLSGFSLSTSGMGVSWIRQPPGKALEWLAHIYWDDDKRYSTSLKTRLTISKDASKDQVVLTMTNMDTVDTATYYCGRRVRNYFSGTSYWYFDVWGTGTLVTVSS VL: DVVMTQSPLSLPVTLGQPASISCRSSQNILHRTGNTYLEWFQQRPGQSPRLLIYKVSNRFSGVPDRFSGSGSGTDFTLKISRVEAEDVGVYYCFQGSYVPFTFGQGTKLEIK", "pKd": 5.23}
{"binder": "Antibody 3159 (antibody, human IgG1, V domains shown, Chimeric: mouse VH/VL linked to Herceptin (trastuzumab) human IgG1 / kappa constant regions) VH: QVTLKESGPGILQSSLTLSLTCSLSGFSLSTSGMGVSWIRQPSGKGLEWLAHIYWDDDKRYNPSLKTRLTISKDASRDQVFLKIISVDTADTGTYYCGRRVRNYFSGTSYWYFDVWGTGTTVTVSS VL: DVLMTQTPLSLSVSLGDQASISCRSSQNILHRTGNTYLEWYLQKPGQSPKLLIYKVSNRFSGVPDRFSGSGSGTDFTLKISRLEAEDLGVYYCFQGSYVPFTFGSGTKLEMK", "pKd": 6.03}
{"binder": "11857 HC3 + LC2 (humanized) (antibody, V domains shown) VH: EVQLVQSGAEVKKPGASVKVSCKASGYTFTDYYMNWVRQAPGKSLEWMGNINPNNGGTDYNQKFQGRVTLTVDTSISTAYMELSRLRSDDTVVYYCARSYGSRFPYWGLGTLVTVSS VL: DIQMTQSPSSLSASVGDRVTITCRASQDITNYLSWYQQKPGGTVKLLIFYTAVLQSGFPSRFSGSGSGADFTLTISSLQPEDVATYYCQQGHTLPWTFGGGTKVEIK", "pKd": 7.22}
{"binder": "3159 HC3 + LC1 (humanized) (antibody, V domains shown, detected with anti-human Fc antibody) VH: QITLKESGPTLVKPTQTLTLTCTLSGFSLSTSGMGVSWIRQPPGKALEWLAHIYWDDDKRYNPSLKSRLTITKDASKDQVVLTMTNMDTVDTATYYCGRRVRNYFSGTSYWYFDVWGTGTLVTVSS VL: DIVMTQTPLSLSVTPGQPASISCKSSQNILHRTGNTYLEWYLQKPGQPPQLLIYKVSNRFSGVPDRFSGSGSGTDFTLKISRVEAEDVGVYYCFQGSYVPFTFGQGTKLEIK", "pKd": 6.69}
